System: SUDHL5 cells
Assay: Induction of cytotoxicity (CellTiter-Glo, 5 h), SUDHL5
Conditions: read-out: Cytotox SUDHL5 [M] (median); IC50, median; SUDHL5, 5 h
Exercise: state measured IC50 for each of the compounds provided.
One number for each entry, in M.

>  <Compound>
CCc1c2c(nn1C)CCCN(CC(F)F)CCn1c(C(=O)O)c(CCCOc3cccc4cc(F)ccc34)c3ccc(Cl)c-2c31 (racemic) [Example 118]

>  <Output Unit>
M

>  <Value>
5.5e-07

$$$$
>  <Compound>
CCc1c2c(nn1C)COCC1CC1Cn1c(C(=O)O)c(CCCOc3cccc4cc(F)ccc34)c3ccc(Cl)c-2c31 (single isomer, unassigned; (+)) [Example 104]

>  <Output Unit>
M

>  <Value>
9.7e-07

$$$$
>  <Compound>
CCc1c2c(nn1C)CN(C)CCCn1c(C(=O)O)c(CCCOc3cccc4cc(F)ccc34)c3ccc(Cl)c-2c31 (racemic) [Example 112]

>  <Output Unit>
M

>  <Value>
6.1e-07

$$$$
>  <Compound>
Cc1c2c(nn1C)CN(C)CCCCn1c(C(=O)O)c(CCCOc3cccc4ccccc34)c3ccc(Cl)c-2c31 (single isomer, unassigned; enantiomer 2) [Example 13]

>  <Output Unit>
M

>  <Value>
6.9e-06

$$$$
>  <Compound>
CCc1c2c(nn1C)COCC(O)CCn1c(C(=O)O)c(CCCOc3cccc4cc(F)ccc34)c3ccc(Cl)c-2c31 (stereo not shown) [Example 101]

>  <Output Unit>
M

>  <Value>
7.3e-06

$$$$

Batch of 2 compounds: report IC50 for each.
1. Cc1c2c(nn1C)CN(CC(F)(F)F)CCCCn1c(C(=O)O)c(CCCOc3cccc4cc(F)ccc34)c3ccc(Cl)c-2c31 (single isomer, unassigned; enantiomer 1) [Example 59]
2. CCc1c2c(nn1C)COCC1CC1Cn1c(C(=O)O)c(CCCOc3cccc4cc(F)ccc34)c3ccc(Cl)c-2c31 (racemic) [Example 103]

result:
["8e-07", "5.7e-07"]

====

Test system: SUDHL5 cells
Assay: Induction of caspase-3/7 activity (Caspase-Glo 3/7), SUDHL5
Type: cell-based
Details: EC50, median; SUDHL5, 3 h treatment
Hi there, I'd appreciate the recorded EC50 for every entry that follows.
One number for each entry, in nM.

Consider the following illustrative entries.
>  <Compound>
CCc1c2c(nn1C)COCC1(CCn3c(C(=O)O)c(CCCOc4cccc5cc(F)ccc45)c4ccc(Cl)c-2c43)CC1 [Example 111]

>  <EC50, nM>
5000

$$$$
>  <Compound>
CCc1c2c(nn1C)CN(C)CC(F)(F)CCn1c(C(=O)O)c(CCCOc3cccc4cc(F)ccc34)c3ccc(Cl)c-2c31 (single isomer, unassigned) [Example 127]

>  <EC50, nM>
280

$$$$

query: Tell me the measured EC50 of Cc1c2c(nn1C)COCC1CCC1Cn1c(C(=O)O)c(CCCOc3cccc4ccccc34)c3ccc(Cl)c-2c31 (single isomer, unassigned; stereoisomer 2) [Example 64] , please.
result: 330

====

Test system: AMO-1 cells
Assay: Antiproliferation assay (CellTiter-Glo, 72 h), AMO-1
Type: cell-based
Conditions: Homo sapiens, AMO1, 72 h, IC50, median; AMO-1, 72 h; read-out: Antiproli AMO-1 [M] median
Measured Endpoint: IC50 (M)
Numbers only, in M.

>  <Compound>
CCc1nn(CCN2CCOCC2)c2c1-c1c(Cl)ccc3c(CCCOc4cccc5ccccc45)c(C(=O)O)n(c13)CCCCN(C)C2 (single isomer, unassigned; enantiomer 1) [Example 46]

>  <IC50 [M]>
5.9e-07

$$$$

Field: IC50. Fill in for each record below.
1. CCc1c2c(nn1C)COCC1(CCn3c(C(=O)O)c(CCCOc4cccc5ccccc45)c4ccc(Cl)c-2c43)CC1 (single isomer, unassigned; enantiomer 2) [Example 74]
2. CCc1c2c(nn1C)CN(C)CCCCn1c(C(=O)O)c(CCCOc3cccc4cc(F)ccc34)c3ccc(Cl)c-2c31 (racemic) [Example 5]

result:
["1.3e-06", "6.1e-07"]

====

Test system: SUDHL10 cells
Assay: Induction of cytotoxicity (CellTiter-Glo, 5 h), SUDHL10
Conditions: read-out: Cytotox SUDHL10 [M] (median); IC50, median; SUDHL10, 5 h; listed as 081
Measured Endpoint: IC50 (M)
One number for each entry, in M.

query: What measured IC50 goes with Cc1c2c(nn1C)COCC1CCC1Cn1c(C(=O)O)c(CCCOc3cccc4ccccc34)c3ccc(Cl)c-2c31 (single isomer, unassigned) [Example 81] ?
result: 8.4e-06

====

Tested on: SUDHL5 cells
Assay: Antiproliferation assay (CellTiter-Glo, 72 h), SUDHL5
Assay type: cell-based
Conditions: IC50, median; SUDHL5, 72 h; read-out: Antiproli SUDHL5 [M] (median)
Measured Endpoint: IC50 (M)
One number for each entry, in M.

>  <Molecule>
CCc1c2c(nn1C)CN(C)CC(F)(F)CCn1c(C(=O)O)c(CCCOc3cccc4cc(F)ccc34)c3ccc(Cl)c-2c31 (single isomer, unassigned) [Example 128]

>  <IC50 (M)>
4.1e-06

$$$$
>  <Molecule>
CCc1c2c(nn1C)CCCN(C)CCn1c(C(=O)O)c(CCCOc3cccc4cc(F)ccc34)c3ccc(Cl)c-2c31 (single isomer, unassigned) [Example 117]

>  <IC50 (M)>
3.4e-06

$$$$
>  <Molecule>
Cc1c2c(nn1C)COCCCCn1c(C(=O)O)c(CCCOc3cccc4cc(F)ccc34)c3ccc(Cl)c-2c31 (single isomer, unassigned; enantiomer 1) [Example 15]

>  <IC50 (M)>
1.9e-07

$$$$

Consider the following items and state reported IC50 for each.
1. Cc1c2c(nn1C)CN(CC(F)(F)F)CCCCn1c(C(=O)O)c(CCCOc3cccc4cc(F)ccc34)c3ccc(Cl)c-2c31 (single isomer, unassigned; enantiomer 2) [Example 60]
2. Cc1c2c(nn1C)CN(C)CCCCn1c(C(=O)O)c(CCCOc3cccc4ccccc34)c3ccc(Cl)c-2c31 (single isomer, unassigned; enantiomer 1) [Example 12]
3. Cc1c2c(nn1C)CN(C)CCCCn1c(C(=O)O)c(CCCOc3cccc4cc(F)ccc34)c3ccc(Cl)c-2c31 (single isomer, unassigned; enantiomer 2)

result:
1. 3.9e-06
2. 1.7e-07
3. 6e-06

Give measured IC50 for every item shown.
1. Cc1c2c(nn1C)COCCCCn1c(C(=O)O)c(CCCOc3cccc4cc(F)ccc34)c3ccc(Cl)c-2c31 (single isomer, unassigned; enantiomer 2) [Example 17]
2. Cc1c2c(nn1C)COCCCCn1c(C(=O)O)c(CCCOc3cccc4ccccc34)c3ccc(Cl)c-2c31 (single isomer, unassigned; enantiomer 2) [Example 27]

result:
2.1e-07
7.8e-06

====

Test system: SUDHL5 cells
Test: Induction of cytotoxicity (CellTiter-Glo, 5 h), SUDHL5
Settings: Homo sapiens, SU-DHL-5, 5 h, read-out: Cytotox SUDHL5 [M] (median), IC50, median; SUDHL5, 5 h
Measured Endpoint: IC50 (M)
Numbers only, in M.

Past entries and their recorded results:
>  <Molecule>
CCc1c2c(nn1C)COCCCCn1c(C(=O)O)c(CCCOc3cccc4cc(F)ccc34)c3ccc(Cl)c-2c31 (single isomer, unassigned; enantiomer 1) [Example 69]

>  <Measured Endpoint>
IC50

>  <Output Unit>
M

>  <Value>
2.3e-06

$$$$
>  <Molecule>
CCc1c2c(nn1C)CN(C)CC(F)(F)CCn1c(C(=O)O)c(CCCOc3cccc4cc(F)ccc34)c3ccc(Cl)c-2c31 (racemic) [Example 126]

>  <Measured Endpoint>
IC50

>  <Output Unit>
M

>  <Value>
5e-07

$$$$
>  <Molecule>
CCc1c2c(nn1C)CN(C(=O)OCCOC)CCCCn1c(C(=O)O)c(CCCOc3cccc4cc(F)ccc34)c3ccc(Cl)c-2c31 [Example 134]

>  <Measured Endpoint>
IC50

>  <Output Unit>
M

>  <Value>
1.8e-07

$$$$
>  <Molecule>
CCc1nn(C)c2c1-c1c(Cl)ccc3c(CCCOc4cccc5cc(F)ccc45)c(C(=O)O)n(c13)CCCCN(C)C2 (racemic) [Example 39]

>  <Measured Endpoint>
IC50

>  <Output Unit>
M

>  <Value>
1.5e-07

$$$$
>  <Molecule>
CCc1c2c(nn1C)COCC1(CCn3c(C(=O)O)c(CCCOc4cccc5ccccc45)c4ccc(Cl)c-2c43)CC1 (single isomer, unassigned; enantiomer 2) [Example 74]

>  <Measured Endpoint>
IC50

>  <Output Unit>
M

>  <Value>
4.1e-07

$$$$

Report IC50 for each item below.
1. CCc1c2c(nn1C)CCCCCCn1c(C(=O)O)c(CCCOc3cccc4ccccc34)c3ccc(Cl)c-2c31 (racemic) [Example 51]
2. CCc1c2c(nn1C)CCCN(C)CCn1c(C(=O)O)c(CCCOc3cccc4cc(F)ccc34)c3ccc(Cl)c-2c31 (racemic) [Example 115]
3. Cc1c2c(nn1C)COCC1CCC1Cn1c(C(=O)O)c(CCCOc3cccc4ccccc34)c3ccc(Cl)c-2c31 (single isomer, unassigned; enantiomer 1) [Example 78]
4. Cc1c2c(nn1C)COCC1CC1Cn1c(C(=O)O)c(CCCOc3cccc4ccccc34)c3ccc(Cl)c-2c31 (single isomer, unassigned; stereoisomer 1) [Example 65]
5. CCc1c2c(nn1C)CCCOCCn1c(C(=O)O)c(CCCOc3cccc4cc(F)ccc34)c3ccc(Cl)c-2c31 (racemic) [Example 124]
6. CCc1nn(C)c2c1-c1c(Cl)ccc3c(CCCOc4cccc5cc(F)ccc45)c(C(=O)O)n(c13)CCOCCC2 [Example 125]

result:
8.4e-06
4.4e-07
8.2e-07
3.3e-07
1.1e-06
1.3e-06

query: // IC50 lookup, key: CCc1c2c(nn1C)CN(C(=O)OCCC1CCOCC1)CCCCn1c(C(=O)O)c(CCCOc3cccc4cc(F)ccc34)c3ccc(Cl)c-2c31 [Example 138]
result: 2.4e-07
